target-of-assay: human recombinant adrenergic α2A receptor (Homo sapiens, UniProt P08913)
Construct: expressed in transfected cells; host or cells: insect Sf9 cells
Sequence (P08913 whole entry): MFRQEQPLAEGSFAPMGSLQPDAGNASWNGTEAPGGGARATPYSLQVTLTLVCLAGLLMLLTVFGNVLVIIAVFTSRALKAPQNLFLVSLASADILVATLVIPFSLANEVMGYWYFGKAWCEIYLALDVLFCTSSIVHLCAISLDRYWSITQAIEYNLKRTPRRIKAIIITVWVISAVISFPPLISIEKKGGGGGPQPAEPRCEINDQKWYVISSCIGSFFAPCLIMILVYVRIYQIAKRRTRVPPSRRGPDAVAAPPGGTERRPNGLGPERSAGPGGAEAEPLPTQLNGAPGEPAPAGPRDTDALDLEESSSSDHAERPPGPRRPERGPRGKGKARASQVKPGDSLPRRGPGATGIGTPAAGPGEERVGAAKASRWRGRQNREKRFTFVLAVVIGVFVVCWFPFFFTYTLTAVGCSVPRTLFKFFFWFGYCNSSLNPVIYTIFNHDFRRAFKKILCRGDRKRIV
method-summary: Radioligand binding, adrenergic α2A ([3H]MK-912)
experimental-setup: read-out: Percentage inhibition of ligand binding, Adrenergic α2A (0.03 μM), compound at 0.03 μM; [3H]MK-912; repeat datapoints each shown
readout-type: inhibition at 0.03 µM
Write the figure, then the unit, nothing else.

[[record]]
compound = "Cc1ccc(C(O)Cn2c3c(c4cc(C)ccc42)CN(C)CC3)cc1 (single isomer, unassigned) [183b]"
meas_value = "84%"


Qu. Which inhibition at 0.03 µM is listed for Cc1ccc2c(c1)c1c(n2CC(C)(O)c2cccnc2)CNCC1 (single isomer, unassigned) [128a] ?
Ans. 9%

Qu. Now the compound `CN1CCc2c(c3c(Cl)cccc3n2CCc2ccccc2)C1`
Ans. 37%
